- ASSAY NOTES: in vitro
- EXPERIMENTAL PARAMETERS: PAMPA
- Description: Permeability of the compound after 16 hrs by PAMPA
The following compounds are shown together with reported Papp at 16 h values.
Write the number in ×10⁻⁶ cm/s without appending the unit.

O=c1ccc2ccc(OCCCN3CCN(CCNc4c5c(nc6ccccc46)CCCC5)CC3)cc2o1    3.43
O=c1ccc2ccc(OCCCCCN3CCN(CCNc4c5c(nc6ccccc46)CCCC5)CC3)cc2o1    6.5
O=c1ccc2ccc(OCCN3CCN(CCNc4c5c(nc6ccccc46)CCCC5)CC3)cc2o1    2.13
Cc1c(C)c2ccc(OCCN3CCN(CCCNc4c5c(nc6ccccc46)CCCC5)CC3)cc2oc1=O    4.75
O=c1ccc2ccc(OCCCCCCN3CCN(CCNc4c5c(nc6ccccc46)CCCC5)CC3)cc2o1    6.96
Cc1c(Cl)c(=O)oc2cc(OCCN3CCN(CCCNc4c5c(nc6ccccc46)CCCC5)CC3)ccc12    5.37

Query string: Which value of Papp at 16 h has been reported for `O=c1ccc2ccc(OCCCCCN3CCN(CCCNc4c5c(nc6ccccc46)CCCC5)CC3)cc2o1` in the records?
Result string: 2.37

Query string: Record request: Papp at 16 h value, item `O=c1ccc2ccc(OCCN3CCN(CCCNc4c5c(nc6ccccc46)CCCC5)CC3)cc2o1`
Result string: 1.21

Query string: Which Papp at 16 h is listed for `O=c1oc2cc(OCCN3CCN(CCCNc4c5c(nc6ccccc46)CCCC5)CC3)ccc2c2c1CCCC2` ?
Result string: 3.01
